Biological target: wild type AXL (wtAXL) receptor tyrosine kinase (Homo sapiens, UniProt P30530)
Construct: WtAXL cDNA was cloned into vector pLXSN(ESK) and transfected into Phoenix E packaging cells
Assay: NIH-3T3-AXL cellular tyrosine kinase assay (inhibition of AXL phosphorylation)
Conditions: AXL phosphorylation in NIH-3T3-AXL (clone 22) cells, serum-depleted, 2 h with compound, immunoprecipitation / anti-phosphotyrosine blot
pIC50: −log10 of the molar value.
Entries and their pIC50
assayReadout: pIC50

In [3]: df
Out[3]:
                                    compound  assayreadout  assayvalue
 0  CCCCS(=O)(=O)Nc1ccc(Oc2ccnc3cc(OC)c(OC)cc23)cc1F         pIC50      < 5.52
 1  COc1cc2c(Oc3ccc(NS(=O)(=O)c4ccccc4C(F)(F)F)cc3F)ccnc2cc1OCCCN1CCC(C)CC1         pIC50        7.34
 2  COc1cc2nccc(Oc3ccc(NS(=O)(=O)c4ccc(Oc5ccccc5)cc4)c(F)c3)c2cc1OC         pIC50      < 5.52
 3  COc1cc2nccc(Oc3ccc(NS(=O)(=O)c4cc(Cl)cc(Cl)c4O)cc3C)c2cc1OC         pIC50        6.32
 4  CCc1ccc(S(=O)(=O)Nc2ccc(Oc3ccnc4cc(OC)c(OC)cc34)cc2F)cc1         pIC50      < 6.00
 5  Cc1cc(Oc2ccc(NS(=O)(=O)c3cccc(Oc4ccccc4)c3)c(F)c2)c2cccc(C(F)(F)F)c2n1         pIC50      < 5.00
 6  COc1cc2nccc(Oc3ccc(NS(=O)(=O)c4cccc(Oc5ccccc5)c4)c(F)c3)c2cc1OC         pIC50        6.20
 7  COc1cc2nccc(Oc3ccc(NS(=O)(=O)c4cc(Cl)cc(Cl)c4OC)c(F)c3)c2cc1OC         pIC50      > 6.00
 8  COc1cc2nccc(Oc3ccc(NS(=O)(=O)c4cc(Cl)cc(Cl)c4OC)c(C)c3)c2cc1OC         pIC50      < 5.52
 9  COc1cc2nccc(Oc3ccc(NS(=O)(=O)c4ccc(-c5ccccc5)cc4)c(F)c3)c2cc1OC         pIC50      < 5.00
10  COc1cc2nccc(Oc3ccc(NS(=O)(=O)c4cc(F)ccc4F)cc3F)c2cc1OC         pIC50        6.74
11  CCCS(=O)(=O)Nc1ccc(Oc2ccnc3cc(OCCCN4CCC(C)CC4)c(OC)cc23)c(F)c1         pIC50        6.32
12  Cc1cc(Oc2ccc(NS(=O)(=O)c3cccc(-c4ncccn4)c3)c(F)c2)c2cccc(C(F)(F)F)c2n1         pIC50      < 5.00
13  COc1cc2nccc(Oc3ccc(NS(=O)(=O)c4ccc(Br)c(C)c4)c(F)c3)c2cc1OC         pIC50        5.35
14  COc1cc2nccc(Oc3ccc(NS(=O)(=O)c4ccc(Cl)s4)c(F)c3)c2cc1OC         pIC50        5.41
15  COc1cc2nccc(Oc3ccc(NS(=O)(=O)c4cc5ccccc5s4)cc3)c2cc1OC         pIC50      < 5.52
16  COc1cc2nccc(Oc3ccc(NS(=O)(=O)c4cc(F)ccc4F)cc3OC)c2cc1OC         pIC50        5.66
17  Cc1cc(Oc2ccc(NS(=O)(=O)c3ccc(-c4ccccc4)cc3)c(F)c2)c2cccc(C(F)(F)F)c2n1         pIC50      < 5.00
18  COc1cc2nccc(Oc3ccc(NS(=O)(=O)c4ccccc4OC(F)(F)F)c(C)c3)c2cc1OC         pIC50      < 5.52
19  COc1cc2nccc(Oc3ccc(NS(=O)(=O)c4ccccc4Br)c(F)c3)c2cc1OC         pIC50      < 6.00
20  Cc1cc(Oc2ccc(NS(=O)(=O)c3cccc(Br)c3)cc2)c2cc(F)ccc2n1         pIC50      > 6.00
21  COc1cc2nccc(Oc3ccc(NS(=O)(=O)c4csc5ccccc45)cc3OC)c2cc1OC         pIC50      < 5.00
22  COc1c(Cl)cc(Cl)cc1S(=O)(=O)Nc1ccc(Oc2cc(C)nc3ccc(F)cc23)cc1         pIC50      > 6.00
23  COc1cc2nccc(Oc3ccc(NS(=O)(=O)c4ccccc4OC)c(F)c3)c2cc1OC         pIC50      < 5.52
24  Cc1cc(Oc2ccc(NS(=O)(=O)c3cc4ccccc4s3)c(F)c2)c2cccc(C(F)(F)F)c2n1         pIC50      < 5.00
25  COc1cc2c(Oc3ccc(NS(=O)(=O)c4cccc(-c5ccccc5)c4)cc3F)ccnc2cc1OCCCN1CCC(C)CC1         pIC50        6.75
26  CCCCS(=O)(=O)Nc1ccc(Oc2ccnc3cc(OCCCN4CCCC(C)C4)c(OC)cc23)c(F)c1 (stereo not shown)         pIC50        6.42
27  COc1cc2nccc(Oc3ccc(NS(=O)(=O)c4ccc(OC)c5ccccc45)cc3F)c2cc1OC         pIC50        6.09
28  COc1ccc(S(=O)(=O)Nc2ccc(Oc3ccnc4cc(OC)c(OC)cc34)cc2)cc1Cl         pIC50      < 5.00
29  COc1cc2nccc(Oc3ccc(NS(=O)(=O)c4cnc(C)[nH]4)cc3)c2cc1OC         pIC50      < 5.00
30  COc1cc2nccc(Oc3ccc(NS(=O)(=O)c4ccc(C)c(F)c4)c(F)c3)c2cc1OC         pIC50        5.37

* * *

Counter-ions that a name gives are not always drawn.
Quick list: melting point per entry.
assayReadout: melting point

In [3]: df
Out[3]:
                                   molecule     assayvalue
0  COc1cc2nccc(Oc3ccc(NS(=O)(=O)c4cccs4)c(F)c3)c2cc1OC  214 to 216 °C
1  COc1cc2nccc(Oc3ccc(NS(=O)(=O)c4ccc(Br)s4)c(F)c3)c2cc1OC  207 to 209 °C
2  COc1cc2nccc(Oc3ccc(NS(=O)(=O)c4ccc(C)s4)c(F)c3)c2cc1OC  218 to 220 °C
3  COc1cc2c(Oc3ccc(NS(=O)(=O)c4ccccc4C(F)(F)F)cc3F)ccnc2cc1OCCCN (as salt: hydrochloride)  197 to 199 °C
4  COc1cccc(S(=O)(=O)Nc2ccc(Oc3cc(C)nc4ccc(F)cc34)cc2F)c1  150 to 151 °C
5  COc1cc2nccc(Oc3ccc(NS(=O)(=O)c4cc(F)ccc4F)cc3)c2cc1OC  260 to 263 °C
6  COc1cc2nccc(Oc3ccc(NS(=O)(=O)c4ccc(F)cc4F)c(F)c3)c2cc1OC  212 to 214 °C
7  COc1cc2nccc(Oc3ccc(NS(=O)(=O)c4csc5ccccc45)cc3OC)c2cc1OC  144 to 146 °C

* * *

Molecular target: wild type AXL (wtAXL) receptor tyrosine kinase (Homo sapiens)
Construct: WtAXL cDNA was cloned into vector pLXSN(ESK) and transfected into Phoenix E packaging cells
Sequence (P30530 26-894): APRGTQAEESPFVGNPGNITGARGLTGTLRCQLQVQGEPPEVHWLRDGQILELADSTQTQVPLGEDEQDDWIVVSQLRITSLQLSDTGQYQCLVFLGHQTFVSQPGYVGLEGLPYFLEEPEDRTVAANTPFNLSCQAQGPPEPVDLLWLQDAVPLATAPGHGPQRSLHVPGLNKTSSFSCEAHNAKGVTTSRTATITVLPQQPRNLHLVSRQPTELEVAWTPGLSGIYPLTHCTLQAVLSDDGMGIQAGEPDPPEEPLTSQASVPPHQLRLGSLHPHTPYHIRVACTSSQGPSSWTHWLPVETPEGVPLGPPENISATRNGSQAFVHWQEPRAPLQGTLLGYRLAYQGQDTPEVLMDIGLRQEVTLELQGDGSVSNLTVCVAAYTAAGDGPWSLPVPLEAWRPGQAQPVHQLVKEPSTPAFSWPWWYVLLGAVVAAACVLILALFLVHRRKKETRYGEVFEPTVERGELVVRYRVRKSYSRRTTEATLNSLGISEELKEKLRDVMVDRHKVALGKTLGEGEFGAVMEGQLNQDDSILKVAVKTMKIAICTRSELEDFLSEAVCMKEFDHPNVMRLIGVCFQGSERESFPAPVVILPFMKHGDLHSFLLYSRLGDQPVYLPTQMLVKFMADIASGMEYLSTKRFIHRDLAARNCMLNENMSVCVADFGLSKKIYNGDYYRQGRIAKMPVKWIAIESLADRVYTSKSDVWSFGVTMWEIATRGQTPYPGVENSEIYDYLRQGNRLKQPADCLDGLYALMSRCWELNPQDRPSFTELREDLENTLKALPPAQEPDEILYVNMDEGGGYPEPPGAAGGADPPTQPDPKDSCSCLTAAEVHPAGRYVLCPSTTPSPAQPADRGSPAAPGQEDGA
Test: NIH-3T3-AXL cellular tyrosine kinase assay (inhibition of AXL phosphorylation)
Details: AXL phosphorylation in NIH-3T3-AXL (clone 22) cells, serum-depleted, 2 h with compound, immunoprecipitation / anti-phosphotyrosine blot
assayReadout: IC50

In [3]: df
Out[3]:
                                    molecule                              targetentity  assayreadout  assayvalue
 0  COc1cc2nccc(Oc3ccc(NS(=O)(=O)c4cccc5ccccc45)cc3F)c2cc1OC [Example A100]  wild type AXL (wtAXL) receptor tyrosine kinase (Homo sapiens)          IC50     0.74 µM
 1  Cc1cc(Oc2ccc(NS(=O)(=O)c3cc(Cl)ccc3Cl)c(F)c2)c2cccc(C(F)(F)F)c2n1 [Example C05]  wild type AXL (wtAXL) receptor tyrosine kinase (Homo sapiens)          IC50     > 10 µM
 2  COc1ccc(S(=O)(=O)Nc2ccc(Oc3cc(C)nc4c(C(F)(F)F)cccc34)c(F)c2)c2ccccc12 [Example C08]  wild type AXL (wtAXL) receptor tyrosine kinase (Homo sapiens)          IC50     > 10 µM
 3  COc1cc2nccc(Oc3ccc(NS(=O)(=O)c4cccc(Oc5ccccc5)c4)cc3)c2cc1OC [Example A115]  wild type AXL (wtAXL) receptor tyrosine kinase (Homo sapiens)          IC50     1.26 µM
 4  COc1cc2nccc(Oc3ccc(NS(=O)(=O)c4cccc(-c5ncccn5)c4)c(C)c3)c2cc1OC [Example A93]  wild type AXL (wtAXL) receptor tyrosine kinase (Homo sapiens)          IC50      > 3 µM
 5  Cc1cc(Oc2ccc(NS(=O)(=O)C3CC3)c(F)c2)c2cc(F)ccc2n1 [Example B4]  wild type AXL (wtAXL) receptor tyrosine kinase (Homo sapiens)          IC50     > 10 µM
 6  COc1cc2c(Oc3ccc(NS(=O)(=O)c4cccc5ccccc45)cc3F)ccnc2cc1OCCCN1CCC(C)CC1 [Example D21]  wild type AXL (wtAXL) receptor tyrosine kinase (Homo sapiens)          IC50    0.347 µM
 7  Cc1cc(Oc2ccc(NS(=O)(=O)c3ccc(Br)cc3C(F)(F)F)cc2)c2cc(F)ccc2n1 [Example B15]  wild type AXL (wtAXL) receptor tyrosine kinase (Homo sapiens)          IC50     > 10 µM
 8  Cc1cc(Oc2ccc(NS(=O)(=O)c3cccc4ccccc34)cc2)c2cc(F)ccc2n1 [Example B20]  wild type AXL (wtAXL) receptor tyrosine kinase (Homo sapiens)          IC50     > 10 µM
 9  COc1cc2nccc(Oc3ccc(NS(=O)(=O)c4cc(F)ccc4F)cc3)c2cc1OC [Example A118]  wild type AXL (wtAXL) receptor tyrosine kinase (Homo sapiens)          IC50     0.54 µM
10  COc1cc2nccc(Oc3ccc(NS(=O)(=O)c4ccco4)c(F)c3)c2cc1OC [Example A22]  wild type AXL (wtAXL) receptor tyrosine kinase (Homo sapiens)          IC50      9.6 µM
11  COc1cc2nccc(Oc3ccc(NS(=O)(=O)c4csc5ccccc45)cc3F)c2cc1OC [Example A108]  wild type AXL (wtAXL) receptor tyrosine kinase (Homo sapiens)          IC50      > 1 µM
12  COc1cc2nccc(Oc3ccc(NS(=O)(=O)c4ccc(F)c(F)c4F)c(F)c3)c2cc1OC [Example A20]  wild type AXL (wtAXL) receptor tyrosine kinase (Homo sapiens)          IC50     5.05 µM
13  Cc1cc(Oc2ccc(NS(=O)(=O)c3cc(F)ccc3F)c(F)c2)c2cccc(C(F)(F)F)c2n1 [Example C11]  wild type AXL (wtAXL) receptor tyrosine kinase (Homo sapiens)          IC50     > 10 µM
14  COc1cc2nccc(Oc3ccc(NS(=O)(=O)c4ccc5c(c4)CC(=O)N5C)c(F)c3)c2cc1OC [Example A137]  wild type AXL (wtAXL) receptor tyrosine kinase (Homo sapiens)          IC50     > 10 µM
15  COc1cc2nccc(Oc3ccc(NS(=O)(=O)c4ccc(OC)c5ccccc45)cc3)c2cc1OC [Example A133]  wild type AXL (wtAXL) receptor tyrosine kinase (Homo sapiens)          IC50     > 10 µM

These measurements were taken from patent US9206130B2.
